Test system: MALME-3M melanoma
EXPERIMENT DESCRIPTION: NCI tumour cell line growth inhibition, 48 h
Recorded GI50 by entry

Reference set (6 entries):
| TEST SMILES | PARAMETER MEASURED | VALUE MEASURED |
| --- | --- | --- |
| COc1ccc2c(c1)c(C1(c3cn(C)c4ccc(OC)cc34)C(=O)Nc3ccc(F)cc31)cn2C | GI50 | 6.52 µM |
| CN1C(=O)CNC(=O)[C@H](NC(=O)c2nc3ccccc3cc2O)CSSC[C@H]1C(=O)NCCc1nc2ccccc2cc1O | GI50 | 15.8 µM |
| CN1CCN(c2ccc3c4c(cccc24)C(=O)N(CCN2CCN(CCCN4CCN(CCN5C(=O)c6cccc7c(N8CCN(C)CC8)ccc(c67)C5=O)CC4)CC2)C3=O)CC1 | GI50 | 8.36 µM |
| CC1(C)N=C(N)N=C(N)N1c1ccc(F)c(C(F)(F)F)c1 | GI50 | 26.7 µM |
| COc1ccc(O)c(C(=O)c2ccc(C(=O)O[C@@H]3CCCNC[C@H]3NC(=O)c3ccncc3)cc2)c1F | GI50 | 1.57 µM |
| CS(=O)(=O)CCNCc1ccc(-c2ccc3ncnc(Nc4ccc(OCc5cccc(C(F)(F)F)c5)cc4)c3c2)o1 | GI50 | 5.28 µM |

Let us examine a further case.
Identify the reported GI50 for the following entry. CCOC(=O)CC1(O)C=CC(=O)C=C1
0.914 µg/mL

Ref: PubChem BioAssay (NCI)
